# tested-system: HLA-A*02:01 (Homo sapiens, UniProt P04439, D140Y/D185E/D98H/E176V/E277Q/G131W/G231S/I119V/I121R/I166T/I218V/L300P/L318F/N151K/N90K/P208A/P217A/Q86G/Q94H/R138H/R169H/T345S)
# assay-procedure: MHC binding assay (UV-ligand exchange, beta2m ELISA)
# cond: binding to HLA-A*02:01 ranged by peptide exchange yield (UV-ligand exchange, β2m ELISA)

substance | Peptide exchange
612 (YLYNEGLSV; listed as Homo sapiens) [compound 612] | “+++” (≥50 = +++)
328 (ALNDQVFEI; listed as Homo sapiens) [compound 328] | “+++” (≥50 = +++)
24 (SLSDGLEEV; listed as Homo sapiens) [compound 24] | “++” (≥20% = ++)
16 (VLFQGQASL; listed as Homo sapiens) [compound 16] | “+++” (≥50 = +++)
167 (KVLEVTEEFGV; listed as Homo sapiens) [compound 167] | “+++” (≥50 = +++)
172 (VLYSYTIITV; listed as Homo sapiens) [compound 172] | “++” (≥20% = ++)
469 (YLASDEITTV; listed as Homo sapiens) [compound 469] | “+++” (≥50 = +++)
457 (SLLPGNLVEKV; listed as Homo sapiens) [compound 457] | “+++” (≥50 = +++)
312 (IISDLTIAL; listed as Homo sapiens) [compound 312] | “+++” (≥50 = +++)
595 (VLLSIYPRV; listed as Homo sapiens) [compound 595] | “+++” (≥50 = +++)
138 (YQYPRAILSV; listed as Homo sapiens) [compound 138] | “+++” (≥50 = +++)
218 (SALEELVNV; listed as Homo sapiens) [compound 218] | “++” (≥20% = ++)
64 (YAAPGGLIGV; listed as Homo sapiens) [compound 64] | “++” (≥20% = ++)
175 (YLFENISQL; listed as Homo sapiens) [compound 175] | “+++” (≥50 = +++)
23 (VLLDDIFAQL; listed as Homo sapiens) [compound 23] | “+++” (≥50 = +++)
616 (VLIDEVESL; listed as Homo sapiens) [compound 616] | “+++” (≥50 = +++)
145 (FLATSGTLAGI; listed as Homo sapiens) [compound 145] | “++” (≥20% = ++)
205 (SLYPGTETMGL; listed as Homo sapiens) [compound 205] | “+++” (≥50 = +++)

----------
# tested-system: HLA-A*02:01 (Homo sapiens, UniProt P04439, D140Y/D185E/D98H/E176V/E277Q/G131W/G231S/I119V/I121R/I166T/I218V/L300P/L318F/N151K/N90K/P208A/P217A/Q86G/Q94H/R138H/R169H/T345S)
# assay-procedure: MHC binding assay (UV-ligand exchange, beta2m ELISA)
# cond: binding to HLA-A*02:01 ranged by peptide exchange yield (UV-ligand exchange, β2m ELISA)
# Description: Candidate peptides for T cell based therapies according to the present invention were further tested for their MHC binding capacity (affinity). The individual peptide-MHC complexes were produced by UV-ligand exchange, where a UV-sensitive peptide is cleaved upon UV-irradiation, and exchanged with the peptide of interest as analyzed. Only peptide candidates that can effectively bind and stabilize the peptide-receptive MHC molecules prevent dissociation of the MHC complexes. […]

substance | Peptide exchange
511 (FLDPYCSASV; listed as Homo sapiens) [compound 511] | “++” (≥20% = ++)
5 (HLTEVYPEL; listed as Homo sapiens) [compound 5] | “+++” (≥50 = +++)
525 (VLLEAGEGLVTI; listed as Homo sapiens) [compound 525] | “+++” (≥50 = +++)
502 (RLLAQVPGL; listed as Homo sapiens) [compound 502] | “+++” (≥50 = +++)
446 (QLIPALAKV; listed as Homo sapiens) [compound 446] | “+++” (≥50 = +++)
399 (YLFEPLYHV; listed as Homo sapiens) [compound 399] | “+++” (≥50 = +++)
316 (ILLERLWYV; listed as Homo sapiens) [compound 316] | “+++” (≥50 = +++)
442 (GLLGGGGVLGV; listed as Homo sapiens) [compound 442] | “+++” (≥50 = +++)
174 (ALAQYLITA; listed as Homo sapiens) [compound 174] | “+++” (≥50 = +++)
475 (LLLNEEALAQI; listed as Homo sapiens) [compound 475] | “+++” (≥50 = +++)
304 (MTLGQIYYL; listed as Homo sapiens) [compound 304] | “+++” (≥50 = +++)
352 (SLLELLHIYV; listed as Homo sapiens) [compound 352] | “+++” (≥50 = +++)
443 (GLWEIENNPTV; listed as Homo sapiens) [compound 443] | “+++” (≥50 = +++)
385 (SLLEQGLVEA; listed as Homo sapiens) [compound 385] | “++” (≥20% = ++)
278 (QLLDVVLTI; listed as Homo sapiens) [compound 278] | “++” (≥20% = ++)
430 (HLYSSIEHLTT; listed as Homo sapiens) [compound 430] | “+++” (≥50 = +++)
180 (FQIDPHSGLVTV; listed as Homo sapiens) [compound 180] | “++” (≥20% = ++)
579 (NLMEMVAQL; listed as Homo sapiens) [compound 579] | “++” (≥20% = ++)
615 (VLPPDTDPA; listed as Homo sapiens) [compound 615] | “++” (≥20% = ++)
274 (SLLFSLFEA; listed as Homo sapiens) [compound 274] | “++” (≥20% = ++)
544 (LLWDVPAPSL; listed as Homo sapiens) [compound 544] | “+++” (≥50 = +++)
6 (VLVSDGVHSV; listed as Homo sapiens) [compound 6] | “+++” (≥50 = +++)
524 (ALIENLTHQI; listed as Homo sapiens) [compound 524] | “++” (≥20% = ++)
315 (YLQDVVEQA; listed as Homo sapiens) [compound 315] | “+++” (≥50 = +++)
526 (RLAEVGQYEQV; listed as Homo sapiens) [compound 526] | “++” (≥20% = ++)
398 (KLLEEDGTIITL; listed as Homo sapiens) [compound 398] | “++” (≥20% = ++)
